- SYSTEM: Ribonucleoside-diphosphate reductase large subunit (Mus musculus, UniProt P07742)
- Sequence (P07742 whole entry): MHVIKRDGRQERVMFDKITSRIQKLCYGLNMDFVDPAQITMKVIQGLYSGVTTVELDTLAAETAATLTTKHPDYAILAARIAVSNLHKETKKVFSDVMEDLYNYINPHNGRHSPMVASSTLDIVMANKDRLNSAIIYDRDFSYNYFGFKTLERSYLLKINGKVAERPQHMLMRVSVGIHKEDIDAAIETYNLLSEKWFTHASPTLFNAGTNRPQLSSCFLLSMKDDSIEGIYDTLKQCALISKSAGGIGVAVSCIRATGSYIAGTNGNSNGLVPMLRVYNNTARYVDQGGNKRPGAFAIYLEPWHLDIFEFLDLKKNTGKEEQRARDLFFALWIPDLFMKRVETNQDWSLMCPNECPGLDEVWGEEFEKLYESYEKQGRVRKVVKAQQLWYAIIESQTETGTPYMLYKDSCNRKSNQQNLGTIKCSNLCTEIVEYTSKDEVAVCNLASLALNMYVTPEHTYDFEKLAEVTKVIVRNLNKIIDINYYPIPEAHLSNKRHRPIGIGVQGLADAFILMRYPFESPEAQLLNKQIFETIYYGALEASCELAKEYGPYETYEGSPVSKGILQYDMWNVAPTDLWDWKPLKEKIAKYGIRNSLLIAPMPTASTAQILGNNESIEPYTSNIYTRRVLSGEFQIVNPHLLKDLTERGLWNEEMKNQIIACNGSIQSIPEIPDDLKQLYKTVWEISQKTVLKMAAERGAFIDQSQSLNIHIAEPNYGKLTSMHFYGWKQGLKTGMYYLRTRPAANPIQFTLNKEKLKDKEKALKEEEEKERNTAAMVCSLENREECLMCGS
- TEST NAME: Inhibitory activity of compound against mammalian ribonucleotide reductase; Range is 34-35
pIC50: −log10 of the molar value.
PARAMETER MEASURED: pIC50

| SMILES REPR | SYSTEM | REPORTED RESULT |
| --- | --- | --- |
| CC(=O)N[C@@H](Cc1ccccc1)C(=O)N[C@H](C(=O)N[C@@H](CC(C)C)C(=O)N[C@@H](CC(=O)O)C(=O)N[C@@H](C)C(=O)N[C@@H](C)C(=O)N[C@@H](Cc1ccccc1)C(=O)O)[C@@H](C)O | Ribonucleoside-diphosphate reductase large subunit (Mus musculus, UniProt P07742) | 4.47 |

---

- SYSTEM: Ribonucleoside-diphosphate reductase large subunit (Mus musculus, UniProt P07742)
- TEST NAME: Inhibitory activity of compound against mammalian ribonucleotide reductase; Range is 286-336

| SMILES REPR | SCALE UNIT | IC50 |
| --- | --- | --- |
| CC(=O)N[C@@H](Cc1ccccc1)C(=O)N[C@H](C(=O)N[C@@H](CC(C)C)C(=O)N[C@@H](C)C(=O)N[C@@H](C)C(=O)N[C@@H](CC(=O)O)C(=O)N[C@@H](Cc1ccccc1)C(=O)O)[C@@H](C)O | µM | 286 |

---

- SYSTEM: Ribonucleoside-diphosphate reductase RR1 (Homo sapiens) (UniProt P23921+Q7LG56+P31350)
- TEST NAME: Relative inhibitory potency against mammalian ribonucleotide reductase
- Format: protein-complex assay
Square brackets hold non-standard residues; d marks the D form. Peptide text beside a SMILES is read from it. aThr = C[C@H](O)[C@H](N)C(=O)O
PARAMETER MEASURED: RI (%)

| MOLECULE | SYSTEM | PARAMETER MEASURED | SCALE UNIT | LIMIT OPERATOR | REPORTED RESULT |
| --- | --- | --- | --- | --- | --- |
| CC(C)C[C@H](NC(=O)[C@@H](NC(=O)[C@@H](N)Cc1ccccc1)[C@H](C)O)C(=O)N[C@@H](CC(=O)O)C(=O)N[C@@H](C)C(=O)N[C@@H](CC(=O)O)C(=O)N[C@@H](Cc1ccccc1)C(=O)O (H-F[aThr]LDADF-OH) | Ribonucleoside-diphosphate reductase RR1 (Homo sapiens) (UniProt P23921+Q7LG56+P31350) | RI | % | < | 3 |
| CC(=O)N[C@@H](Cc1ccccc1)C(=O)N[C@H](C(=O)N[C@@H](CC(C)C)C(=O)N[C@@H](CC(=O)O)C(=O)N[C@@H](C)C(=O)N[C@@H](CC(=O)O)C(=O)N[C@@H](CC(C)C)C(=O)O)[C@H](C)O (Ac-F[aThr]LDADL-OH) | Ribonucleoside-diphosphate reductase RR1 (Homo sapiens) (UniProt P23921+Q7LG56+P31350) | RI | % | < | 3 |
| CC(=O)N[C@H](C(=O)N[C@@H](CC(C)C)C(=O)N[C@@H](CC(=O)O)C(=O)N[C@@H](C)C(=O)N[C@@H](CC(=O)O)C(=O)N[C@@H](Cc1ccccc1)C(=O)O)[C@H](C)O | Ribonucleoside-diphosphate reductase RR1 (Homo sapiens) (UniProt P23921+Q7LG56+P31350) | RI | % | < | 3 |
| CC(=O)N[C@@H](Cc1ccccc1)C(=O)N[C@H](C(=O)N[C@@H](CC(C)C)C(=O)N[C@@H](CC(=O)O)C(=O)N[C@@H](Cc1ccccc1)C(=O)O)[C@H](C)O | Ribonucleoside-diphosphate reductase RR1 (Homo sapiens) (UniProt P23921+Q7LG56+P31350) | RI | % | = | 2.5 |
| CC(=O)N[C@@H](Cc1ccccc1)C(=O)N[C@H](C(=O)N[C@@H](CC(C)C)C(=O)N[C@@H](CC(=O)O)C(=O)N[C@@H](C)C(=O)N[C@@H](CC(=O)O)C(=O)N[C@@H](Cc1ccccc1)C(=O)N[C@@H](C)C(=O)N[C@@H](C)C(=O)O)[C@H](C)O (Ac-F[aThr]LDADFAA-OH) | Ribonucleoside-diphosphate reductase RR1 (Homo sapiens) (UniProt P23921+Q7LG56+P31350) | RI | % | = | 2.1 |
| CC(=O)N[C@@H](Cc1ccccc1)C(=O)N[C@H](C(=O)N[C@@H](CC(C)C)C(=O)N[C@@H](CC(=O)O)C(=O)N[C@@H](C)C(=O)N[C@@H](CCC(=O)O)C(=O)N[C@@H](Cc1ccccc1)C(=O)O)[C@H](C)O | Ribonucleoside-diphosphate reductase RR1 (Homo sapiens) (UniProt P23921+Q7LG56+P31350) | RI | % | = | 1.7 |
| CC(=O)N[C@@H](Cc1ccccc1)C(=O)N[C@H](C(=O)N[C@@H](C)C(=O)N[C@@H](CC(=O)O)C(=O)N[C@@H](C)C(=O)N[C@@H](CC(=O)O)C(=O)N[C@@H](Cc1ccccc1)C(=O)O)[C@H](C)O | Ribonucleoside-diphosphate reductase RR1 (Homo sapiens) (UniProt P23921+Q7LG56+P31350) | RI | % | = | 4.9 |
| CC(=O)N[C@@H](Cc1ccccc1)C(=O)N[C@H](C(=O)N[C@@H](CC(C)C)C(=O)N[C@@H](CC(=O)O)C(=O)N[C@@H](CC(C)C)C(=O)N[C@@H](CC(=O)O)C(=O)N[C@@H](Cc1ccccc1)C(=O)O)[C@H](C)O | Ribonucleoside-diphosphate reductase RR1 (Homo sapiens) (UniProt P23921+Q7LG56+P31350) | RI | % | = | 35 |
| CC(C)C[C@H](NC(=O)[C@@H](NC(=O)[C@H](Cc1ccccc1)NC(=O)[C@@H](N)CO)[C@H](C)O)C(=O)N[C@@H](CC(=O)O)C(=O)N[C@@H](C)C(=O)N[C@@H](CC(=O)O)C(=O)N[C@@H](Cc1ccccc1)C(=O)O | Ribonucleoside-diphosphate reductase RR1 (Homo sapiens) (UniProt P23921+Q7LG56+P31350) | RI | % | = | 25 |

src = ChEMBL document CHEMBL1126924
